target_or_system: T1, biotin-Aβ1-20 (biotin (position not given))
T1 peptide: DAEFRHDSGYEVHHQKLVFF
procedure_text: BIACORE, biotin-Aβ1-20 as antigen; column IgG1#1
attribute_measured: pKd
Please treat pKd as minus the base-10 logarithm of the molar concentration.

The following binders have reported results that may help.
{"binder": "20C2-8A, affinity matured humanized 20C2, IgG1 humanized A version (antibody, V domains shown, also called SJ-p2-39) VH: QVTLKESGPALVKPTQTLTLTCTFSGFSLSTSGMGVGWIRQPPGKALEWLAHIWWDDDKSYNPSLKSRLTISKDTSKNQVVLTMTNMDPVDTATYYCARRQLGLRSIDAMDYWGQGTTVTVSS VL: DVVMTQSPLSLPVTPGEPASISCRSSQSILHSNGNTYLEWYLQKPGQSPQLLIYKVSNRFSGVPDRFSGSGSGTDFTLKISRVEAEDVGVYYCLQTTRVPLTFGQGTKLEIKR", "measured_value": 9.85}
{"binder": "20C2-2A, affinity matured humanized 20C2, IgG1 humanized A version (antibody, V domains shown, also called SJ-p1-18) VH: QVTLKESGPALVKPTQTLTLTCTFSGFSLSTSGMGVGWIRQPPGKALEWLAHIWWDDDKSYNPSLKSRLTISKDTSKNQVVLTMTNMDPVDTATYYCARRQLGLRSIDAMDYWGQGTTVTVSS VL: DVVMTQSPLSLPVTPGEPASISCRSSQSILHSNGNTYLEWYLQKPGQSPQLLIYKVSNRFSGVPDRFSGSGSGTDFTLKISRVEAEDVGVYYCFQATRVPLTFGQGTKLEIKR", "measured_value": 9.16}
{"binder": "20C2-18A, affinity matured humanized 20C2, IgG1 humanized A version (antibody, V domains shown, also called SJ-p1-9M) VH: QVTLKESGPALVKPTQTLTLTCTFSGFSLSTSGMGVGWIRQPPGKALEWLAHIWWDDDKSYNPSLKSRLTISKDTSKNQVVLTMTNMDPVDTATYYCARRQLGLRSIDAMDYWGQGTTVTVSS VL: DVVMTQSPLSLPVTPGEPASISCRSSQSILHSNGNTYLEWYLQKPGQSPQLLIYKVSNRFSGVPDRFSGSGSGTDFTLKISRVEAEDVGVYYCMQSSFVPLTFGQGTKLEIKR", "measured_value": 8.74}
{"binder": "20C2-12A, affinity matured humanized 20C2, IgG1 humanized A version (antibody, V domains shown, also called 4P1-32) VH: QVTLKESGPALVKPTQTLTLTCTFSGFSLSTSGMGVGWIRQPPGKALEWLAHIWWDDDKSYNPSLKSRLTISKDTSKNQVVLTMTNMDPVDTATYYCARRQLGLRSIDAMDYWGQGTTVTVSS VL: DVVMTQSPLSLPVTPGEPASISCRSSQSILHSNGNTYLEWYLQKPGQSPQLLIYKVSNRFSGVPDRFSGSGSGTDFTLKISRVEAEDVGVYYCLQSSLVPLTFGQGTKLEIKR", "measured_value": 8.82}

Could you now consider this next binder?
[in] Hello, please tell me recorded pKd for this one: 20C2-24A, affinity matured humanized 20C2, IgG1 humanized A version (antibody, V domains shown, also called SJ-p2-44) VH: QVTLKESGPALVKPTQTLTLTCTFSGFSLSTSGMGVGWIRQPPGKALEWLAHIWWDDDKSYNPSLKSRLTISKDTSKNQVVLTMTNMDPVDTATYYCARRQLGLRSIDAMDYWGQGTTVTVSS VL: DVVMTQSPLSLPVTPGEPASISCRSSQSILHSNGNTYLEWYLQKPGQSPQLLIYKVSNRFSGVPDRFSGSGSGTDFTLKISRVEAEDVGVYYCGQTTLVPLTFGQGTKLEIKR
[out] 8.72
